Give measured CPE inhibition for each item. Keep answers brief.
- method: inhibitors of Bluetongue virus cytopathic effect, confirmation, arbovirus, BSR cells (AID 1250)
- test context: BSR cells, Bluetongue virus CPE, ATP luminescence, 72 h; at 20 µM (top of the series)
Express it in %; write the number only.

Identify measured CPE inhibition associated with O=C1NC(=O)/C(=C\c2ccc(Oc3ccc([N+](=O)[O-])cn3)cc2)S1
12.8

Identify measured CPE inhibition associated with O=C(C1CC1)N1CCN=C1SCc1ccc(Cl)cc1
0

Identify measured CPE inhibition associated with O=C(O)c1ccccc1N/N=C\c1ccnc2ccccc12
12.3

Identify measured CPE inhibition associated with O=C1c2[nH]nc(-c3ccccc3O)c2C(c2ccc(F)cc2)N1CC1CCCO1 (stereo unspecified)
10.9

Identify measured CPE inhibition associated with CCc1ccc(C2=CC(c3cc(Br)ccc3F)n3ncnc3N2)cc1 (stereo unspecified)
-5.9

Identify measured CPE inhibition associated with CC(C)n1c(NCCc2ccccc2)nc2c1c(=O)n(C)c(=O)n2C
7.91

Identify measured CPE inhibition associated with FC(F)(F)c1ccc(Oc2ccc3ccccc3c2Br)nc1
1.17

Identify measured CPE inhibition associated with Cc1cc(C(=O)CSc2nnc(-c3ccco3)o2)c(C)n1Cc1ccco1
2.98

Identify measured CPE inhibition associated with COCCCNCC1C(Oc2ccc(Cl)cc2)C(=O)N1c1ccccc1C (stereo unspecified)
14.4

Identify measured CPE inhibition associated with COc1ccc(NC(=O)C(=O)N/N=C/c2cc(C)n(-c3cccc(Cl)c3Cl)c2C)c(OC)c1
20.7

Identify measured CPE inhibition associated with C=CCn1c(SCC(=O)Nc2nc3ccccc3s2)nnc1-c1ccccc1O
21.1

Source: PubChem BioAssay AID1250
